- ASSAY SYSTEM: UniProt Q9NYK1
- Sequence (Q9NYK1 27-1049): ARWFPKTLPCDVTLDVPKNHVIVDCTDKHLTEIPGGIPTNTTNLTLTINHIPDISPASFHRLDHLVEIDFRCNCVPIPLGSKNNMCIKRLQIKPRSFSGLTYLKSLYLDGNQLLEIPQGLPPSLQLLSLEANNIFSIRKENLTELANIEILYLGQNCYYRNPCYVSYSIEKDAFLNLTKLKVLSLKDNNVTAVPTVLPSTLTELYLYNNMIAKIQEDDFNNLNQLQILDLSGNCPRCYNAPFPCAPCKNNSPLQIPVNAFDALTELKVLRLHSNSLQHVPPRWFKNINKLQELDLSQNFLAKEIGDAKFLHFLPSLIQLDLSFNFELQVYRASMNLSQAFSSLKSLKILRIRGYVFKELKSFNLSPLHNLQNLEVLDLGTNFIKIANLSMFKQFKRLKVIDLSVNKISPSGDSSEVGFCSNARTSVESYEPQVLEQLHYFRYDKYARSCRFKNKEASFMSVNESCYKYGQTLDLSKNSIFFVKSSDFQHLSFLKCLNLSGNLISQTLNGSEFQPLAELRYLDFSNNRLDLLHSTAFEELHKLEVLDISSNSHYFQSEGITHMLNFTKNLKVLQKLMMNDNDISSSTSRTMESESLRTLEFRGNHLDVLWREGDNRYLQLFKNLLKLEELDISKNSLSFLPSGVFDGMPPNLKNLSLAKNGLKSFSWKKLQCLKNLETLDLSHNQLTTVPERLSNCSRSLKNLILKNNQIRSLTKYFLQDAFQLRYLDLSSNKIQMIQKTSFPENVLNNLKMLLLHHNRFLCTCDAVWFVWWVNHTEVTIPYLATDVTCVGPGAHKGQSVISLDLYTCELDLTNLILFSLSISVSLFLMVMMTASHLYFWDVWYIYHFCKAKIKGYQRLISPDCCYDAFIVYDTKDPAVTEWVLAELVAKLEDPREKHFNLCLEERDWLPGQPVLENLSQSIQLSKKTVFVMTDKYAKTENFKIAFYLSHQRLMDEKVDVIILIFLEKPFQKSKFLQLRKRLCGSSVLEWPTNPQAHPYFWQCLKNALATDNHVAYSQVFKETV
- TEST DETAILS: TLR7 inhibition reporter assay (HEK-Blue SEAP)
- Type: cell-based
- EXPERIMENTAL CONTEXT: HEK-Blue human TLR7 cells, gardiquimod 7.5 μM
READOUT: pIC50
Notebook: values listed as pIC50 are -log10 of the concentration (mol/L).

# query: pIC50 of entry Cc1c(-c2[nH]c3ccc(N4CCN(C5COC5)C[C@@H]4C)nc3c2C(C)C)cn2ncnc2c1C
8.43

Sample Cc1c(-c2[nH]c3ccc(N4CCNC[C@@H]4C(C)C)nc3c2C(C)C)cn2ncnc2c1C — what was its pIC50?
9.18

For CCN1CC2(C1)CN(c1ccc3[nH]c(-c4cc(OC)c5ncnn5c4)c(C(C)C)c3n1)C2 , what is its reported pIC50?
8.77

Form field: reported pIC50 of Cc1c(-c2[nH]c3ccc(N4C[C@@H](C)N(C(=O)CN(C)C)[C@@H](C)C4)nc3c2C(C)C)cn2ncnc2c1C
9.54

Can you share its pIC50? I mean this compound: Cc1c(-c2[nH]c3ccc(N4[C@H](C)CN(C(C)C)C[C@H]4C)nc3c2C(C)C)cn2ncnc2c1C
8.89

Record request: pIC50 value, item Cc1c(-c2[nH]c3ccc(C4CCC(N5CC(O)C5)CC4)nc3c2C(C)C)cn2ncnc2c1C (stereo not drawn) [Example 1049]
8.80

Entry Cc1c(-c2[nH]c3ccc(N4C[C@@H](C)N(C(=O)CCN5CC6(CCO6)C5)C[C@@H]4C)nc3c2C(C)C)cn2ncnc2c1C : reported pIC50 = ?
9.57

Which measured pIC50 value corresponds to COc1cc(-c2[nH]c3ccc(C4CCC(N5CC6(CCOC6)C5)CC4)nc3c2C(C)C)cn2ncnc12 (stereo not drawn) [Example 1069] ?
10.05

Need pIC50, item Cc1c(-c2[nH]c3ccc(N4CCN(C(=O)CNC5CC5)C[C@@H]4C)nc3c2C(C)C)cn2ncnc2c1C
9.15

Entry Cc1c(-c2[nH]c3ccc(N4CCN(CC(C)(C)O)C[C@@H]4C)nc3c2C(C)C)cn2ncnc2c1C has what pIC50?
8.52

Find the recorded pIC50 belonging to Cc1c(-c2[nH]c3ccc(N4C[C@H](C)N(C(=O)CN(CCO)C(C)(C)C)C[C@H]4C)nc3c2C(C)C)cn2ncnc2c1C and report it.
8.72

Sample Cc1c(-c2[nH]c3ccc(N4C[C@H]5C[C@@H]4CN5)nc3c2C(C)C)cn2ncnc2c1C — what was its pIC50?
9.02

// query pIC50 value for entry Cc1c(-c2[nH]c3ccc(N4CC5(CN(CCCS(C)(=O)=O)C5)C4)nc3c2C(C)C)cn2ncnc2c1C
8.49

Quick one: pIC50 of Cc1c(-c2[nH]c3ccc(C4CCC(NC(C)(C)C)CC4)nc3c2C(C)C)cn2ncnc2c1C (stereo not drawn) [Example 1056] ?
8.68

Consider the compound shown here: COc1cc(-c2[nH]c3ccc(N4CC5(CNC5)C4)nc3c2C(C)C)cn2ncnc12 What is its recorded pIC50?
8.54

###

- ASSAY SYSTEM: human TLR8 (Homo sapiens (Human))
- Sequence (Q9NR97 27-1041): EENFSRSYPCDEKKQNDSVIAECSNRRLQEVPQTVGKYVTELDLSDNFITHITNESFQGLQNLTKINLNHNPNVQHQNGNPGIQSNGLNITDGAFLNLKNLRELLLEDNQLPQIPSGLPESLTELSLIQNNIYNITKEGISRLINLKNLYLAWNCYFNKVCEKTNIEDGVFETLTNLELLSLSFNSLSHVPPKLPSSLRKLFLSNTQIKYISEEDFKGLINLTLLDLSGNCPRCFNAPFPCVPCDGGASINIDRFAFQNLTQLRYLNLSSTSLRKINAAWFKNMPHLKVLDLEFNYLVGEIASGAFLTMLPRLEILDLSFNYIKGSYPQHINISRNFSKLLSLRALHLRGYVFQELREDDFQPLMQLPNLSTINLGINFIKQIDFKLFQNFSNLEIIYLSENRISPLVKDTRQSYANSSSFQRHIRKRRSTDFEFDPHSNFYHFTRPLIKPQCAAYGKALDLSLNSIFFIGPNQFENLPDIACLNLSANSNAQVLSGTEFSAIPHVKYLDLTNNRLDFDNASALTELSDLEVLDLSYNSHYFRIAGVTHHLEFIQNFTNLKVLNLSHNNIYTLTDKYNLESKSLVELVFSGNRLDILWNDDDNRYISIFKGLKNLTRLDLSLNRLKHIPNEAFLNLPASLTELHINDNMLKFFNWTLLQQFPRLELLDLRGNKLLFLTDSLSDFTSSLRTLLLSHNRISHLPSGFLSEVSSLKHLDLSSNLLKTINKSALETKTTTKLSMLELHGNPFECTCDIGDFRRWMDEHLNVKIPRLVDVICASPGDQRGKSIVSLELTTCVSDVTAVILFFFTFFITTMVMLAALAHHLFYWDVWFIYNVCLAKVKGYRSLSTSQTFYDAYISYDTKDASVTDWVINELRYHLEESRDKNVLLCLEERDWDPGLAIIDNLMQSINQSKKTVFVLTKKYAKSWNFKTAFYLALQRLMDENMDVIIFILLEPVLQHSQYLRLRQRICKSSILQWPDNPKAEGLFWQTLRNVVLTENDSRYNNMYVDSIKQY
- TEST DETAILS: TLR8 inhibition reporter assay (HEK-Blue SEAP);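 further: SEAP driven by IFN-β minimal promoter carrying NF-κB and AP-1 sites, compounds dosed 0.05 nM to 50 µM for 22 h, inhibition scaled between agonist-plus-DMSO and reference-inhibitor wells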
- EXPERIMENTAL CONTEXT: read-out: TLR8 IC50; HEK-Blue cells overexpressing human TLR8, R848 15.9 μM stimulation, SEAP reporter
Give log10(IC50) for every item shown.
The common logarithm of IC50 in nM is what is listed.

log10(IC50) lookup needed for Cc1c(-c2[nH]c3ccc(N4CC(N5CCOCC5)C4)nc3c2C(C)C)cn2ncnc2c1C , thanks.
0.68

Item under review: Cc1c(-c2[nH]c3ccc(N4CCC(N(Cc5c[nH]nn5)Cc5c[nH]nn5)CC4)nc3c2C(C)C)cn2ncnc2c1C . Reported log10(IC50)?
0.97

State the recorded log10(IC50) for this entry: Cc1c(-c2[nH]c3ccc(N4CC(N(C)C5CCOCC5)C4)nc3c2C(C)C)cn2ncnc2c1C
0.43

Dear colleague, I am looking for the recorded log10(IC50) of the following molecule: Cc1c(-c2[nH]c3ccc(N4CC5(CCNCC5)C4)nc3c2C(C)C)cn2ncnc2c1C
0.89

State the recorded log10(IC50) for this entry: COc1cc(-c2[nH]c3ccc(N4CCN(CCCC(F)(F)F)CC4)nc3c2C(C)C)cn2ncnc12
0.20

What value of log10(IC50) has been reported for the following molecule? COc1cc(-c2[nH]c3cc(C)c(C4CCC(N)CC4)nc3c2C(C)C)cn2ncnc12 (centres unmarked) [Example 318]
0.32

What log10(IC50) value was documented for this molecule, CC(C)c1c(-c2cn(CCS(C)(=O)=O)c3ncccc23)[nH]c2ccc(C3CCC(NCC(=O)N(C)C)CC3)nc12 (centres unmarked) [Example 257] ?
1.40

Report log10(IC50) for Cc1c(-c2[nH]c3ccc(N4CC(NC5CCOCC5)C4)nc3c2C(C)C)cn2ncnc2c1C please.
0.58
